# PROTOCOL_DETAILS: recombinant barcode read abundance after kanamycin selection (control-corrected) (log10(CPM+1)); higher = more efficient recombination; sequences stand for … in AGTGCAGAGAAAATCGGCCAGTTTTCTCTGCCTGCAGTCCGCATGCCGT…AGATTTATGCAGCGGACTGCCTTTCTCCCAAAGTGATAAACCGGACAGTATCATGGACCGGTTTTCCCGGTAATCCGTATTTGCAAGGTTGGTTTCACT; site = the 11-nt target;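 further: IS621 recombinase and bridge RNA in Escherichia coli cells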
Listed here are sequences together with their documented recombinant barcode read abundance (log10).
The answer should be written as a number, with no unit following it.

// below: answered sequences
• CAAACTCCTTGGGTTCTAACCTGTTGCAT (site CAAACTCCTAC) = 0.0268
• GAGAATCCTTGGGTTCTAACCTGTTGCGT (site GAGTACCCTAC) = 0.0692
• ACGGCATCTTGGGTTCTAACCTGTTGCCT (site ACGGCCTCTAA) = 0.225
• TTGAGATCTTGGGTTCTAACCTGTTGCCT (site TTGACATCTAG) = 0
• TCCGTACCTTGGGTTCTAACCTGTTGCCG (site TCCGTCCCTCA) = 0.0904
• CTAGGCCCTTGGGTTCTAACCTGTTGCAT (site CTAGGCCCTAA) = 0.379
• ATTTCGACTTGGGTTCTAACCTGTTGCGG (site ATTTCGACTCC) = 0.713
• GGACTATCTTGGGTTCTAACCTGTTGCCT (site GGACTATCTAG) = 1.18

[in] Fill in recombinant barcode read abundance (log10) for record ATCTGTTCTTGGGTTCTAACCTGTTGCCT (site ATCTGTTCTAG)
[out] 0.327
